Tested on: murine dermal fibroblasts
Experiment: RNA-Seq of newborn murine dermal fibroblasts
Assay type: cell-based, mouse
Conditions: 10^−7 M, 24 h
Source text: All animal studies followed guidelines outlined by the NIH Guide for the Care and Use of Laboratory Animals and protocols were approved by the Institutional Animal Care and Use Committee at the NIEHS or the UAB. […] Skin samples from newborn C57BL/6 mice were collected at the NIEHS. Dermal fibroblasts were isolated from the skin of newborn mice, 1–2 day old. Briefly, we followed the protocols described previously. […]
PROPERTY MEASURED: Psd4 expression level

MOLECULE: CC(C)CCC[C@](C)(O)[C@H]1CC[C@H]2[C@@H]3CC=C4C[C@@H](O)CC[C@]4(C)[C@H]3CC[C@@]21C [20(OH)C, 20-hydroxycholesterol, reference compound]
TARGET DESC: murine dermal fibroblasts
PROPERTY MEASURED: Psd4 expression level
QUANTITATIVE READOUT: 0.1792
//
MOLECULE: C=C1/C(=C\C=C2/CCC[C@]3(C)[C@@H]([C@H](C)CCCC(C)(C)O)CC[C@@H]23)C[C@@H](O)C[C@@H]1O [1,25(OH)2D3, reference compound]
TARGET DESC: murine dermal fibroblasts
PROPERTY MEASURED: Psd4 expression level
QUANTITATIVE READOUT: 0.7259
//
MOLECULE: C=C1C(=CC=C2CCCC3(C)C2CCC3C(C)(O)CC(O)CC(C)C)CC(O)CC1O (stereo not shown)
TARGET DESC: murine dermal fibroblasts
PROPERTY MEASURED: Psd4 expression level
QUANTITATIVE READOUT: 0.1018
//
MOLECULE: C=C1CCC(O)CC1=CC=C1CCCC2(C)C1CCC2C(C)(O)CC(O)CC(C)C (stereo not shown)
TARGET DESC: murine dermal fibroblasts
PROPERTY MEASURED: Psd4 expression level
QUANTITATIVE READOUT: 0.1525

* * *

test system: murine dermal fibroblasts; assay: RNA-Seq of newborn murine dermal fibroblasts; type: cell-based, mouse; conditions: 10^−7 M, 24 h

MOLECULE: C=C1CCC(O)CC1=CC=C1CCCC2(C)C1CCC2C(C)(O)CC(O)CC(C)C (stereo not shown) [20,23(OH)2D3]
Pde4dip expression level: 25.3974
//
MOLECULE: CC(C)CCC[C@](C)(O)[C@H]1CC[C@H]2[C@@H]3CC=C4C[C@@H](O)CC[C@]4(C)[C@H]3CC[C@@]21C [20(OH)C, 20-hydroxycholesterol, reference compound]
Pde4dip expression level: 20.5427
//
MOLECULE: C=C1C(=CC=C2CCCC3(C)C2CCC3C(C)(O)CC(O)CC(C)C)CC(O)CC1O (stereo not shown) [1,20,23(OH)3D3]
Pde4dip expression level: 24.1833
//
MOLECULE: C=C1/C(=C\C=C2/CCC[C@]3(C)[C@@H]([C@H](C)CCCC(C)(C)O)CC[C@@H]23)C[C@@H](O)C[C@@H]1O [1,25(OH)2D3, reference compound]
Pde4dip expression level: 20.1604

* * *

Overview of reported Hist1h2bg expression level across a group of compounds:
system: murine dermal fibroblasts; test: RNA-Seq of newborn murine dermal fibroblasts; format: cell-based, mouse; conditions: 10^−7 M, 24 h

COMPOUND: C=C1/C(=C\C=C2/CCC[C@]3(C)[C@@H]([C@H](C)CCCC(C)(C)O)CC[C@@H]23)C[C@@H](O)C[C@@H]1O [1,25(OH)2D3, reference compound]
Hist1h2bg expression level: 0.5636
--
COMPOUND: C=C1CCC(O)CC1=CC=C1CCCC2(C)C1CCC2C(C)(O)CC(O)CC(C)C (stereo not shown)
Hist1h2bg expression level: 0.5684
--
COMPOUND: C=C1C(=CC=C2CCCC3(C)C2CCC3C(C)(O)CC(O)CC(C)C)CC(O)CC1O (stereo not shown)
Hist1h2bg expression level: 0
--
COMPOUND: CC(C)CCC[C@](C)(O)[C@H]1CC[C@H]2[C@@H]3CC=C4C[C@@H](O)CC[C@]4(C)[C@H]3CC[C@@]21C [20(OH)C, 20-hydroxycholesterol, reference compound]
Hist1h2bg expression level: 0.5658
